# Organism: Homo sapiens
# assay_overview: Bronchorelaxant activity in human small airways assessed as remaining contraction at 1 uM relative to LTD4
# Format: functional
Short version: Activity at least 90% is y, less is n.

Query block: Determine whether this compound has Activity no lower than 90%: `O=C(/C=C/c1ccc(C(F)(F)F)nc1)N1CCc2c(Cl)c(O)c(O)c(Cl)c2C1`
Result block: n

Query block: // same read-out, input: `COc1ccc(CCCC(=O)N2CCc3c(Cl)c(O)c(O)c(Cl)c3C2)nc1`
Result block: y

Query block: Proceed to `O=C(CCCc1ccc(Cl)cc1)N1CCc2c(Cl)c(O)c(O)c(Cl)c2C1`
Result block: n

Query block: Then `Cc1cc(C(F)(F)F)cnc1CCCC(=O)N1CCc2c(Cl)c(O)c(O)c(Cl)c2C1` ?
Result block: n

Query block: Same thing, different compound: `O=C(CCCc1ccc(C(F)(F)F)nc1)N1CCc2c(Cl)c(O)c(O)c(Cl)c2C1`
Result block: y

Query block: Also `C/C(=C\C(=O)N1CCc2c(Cl)c(O)c(O)c(Cl)c2C1)c1ccc(C(F)(F)F)nc1` ?
Result block: n

Query block: Same question for `N#Cc1ccc(CCCC(=O)N2CCc3c(Cl)c(O)c(O)c(Cl)c3C2)nc1` please.
Result block: n

* * *

# key: entry, value: Activity
# Species: Homo sapiens
# assay_overview: Bronchorelaxant activity in human small airways assessed as remaining contraction at 1 uM relative to LTD4
# Assay type: functional
Entry rule: numbers only, all in %.

// worked examples, Activity included
INSERT INTO assay_data (query_smiles, measurement_label, unit_text, test_value) VALUES
  ('CS(=O)(=O)c1ccc(CCCC(=O)N2CCc3c(Cl)c(O)c(O)c(Cl)c3C2)nc1', 'Activity', '%', 99),
  ('Cc1nc(C(F)(F)F)ncc1/C=C/C(=O)N1CCc2c(Cl)c(O)c(O)c(Cl)c2C1', 'Activity', '%', 88),
  ('O=C(CCCc1ccc(C(F)(F)F)cn1)N1CCc2c(Cl)c(O)c(O)c(Cl)c2C1', 'Activity', '%', 72),
  ('Cc1nc(C(F)(F)F)ccc1/C=C/C(=O)N1CCc2c(Cl)c(O)c(O)c(Cl)c2C1', 'Activity', '%', 71),
  ('O=C(CCCc1ccc(Cl)cn1)N1CCc2c(Cl)c(O)c(O)c(Cl)c2C1', 'Activity', '%', 85),
  ('O=C(CCCc1ncc(C(F)(F)F)cc1Cl)N1CCc2c(Cl)c(O)c(O)c(Cl)c2C1', 'Activity', '%', 61),
  ('O=C(CCCc1ccc([N+](=O)[O-])cn1)N1CCc2c(Cl)c(O)c(O)c(Cl)c2C1', 'Activity', '%', 74),
  ('O=C(/C=C/c1ccccc1)N1CCc2c(Cl)c(O)c(O)c(Cl)c2C1', 'Activity', '%', 83);

The record that follows has no Activity shown yet.
Query block: Name the reported Activity value associated with the molecule `O=C(/C=C/c1cccnc1)N1CCc2c(Cl)c(O)c(O)c(Cl)c2C1`
Result block: 100
